Source listed as PubChem BioAssay AID1159580.

Listed molecules paired with reported normalized growth
- TEST_SUMMARY: chemical genetic growth profiling, strain panel (AID 1159580);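 further: tested at 20 µM; growth read once vehicle control cultures reached saturation at 30 °C; 1 = growth at the plate median or of vehicle wells; lower values mean less growth of the strain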
- CONDITION_DETAILS: S. cerevisiae deletion strains, growth OD, locus YGR135W, strain pre9, active compounds read low
Hit rate of the full screen: of about 5,500 compounds, about 2,000 (36%) were called active. Another 18% or so got no clear call; they are omitted. The list shows a part of the results.
Please state the value as a number alone, without comment.

# normalized growth lookup, item COc1cccc2c1cc([N+](=O)[O-])c1c(C(=O)O)cc3c(c12)OCO3
0.994

# normalized growth lookup, item CC1=CCc2c(cc3oc(C)cc(=O)c3c2O)OC1
0.802

# normalized growth lookup, item CN1CCN2c3ccccc3Cc3ccccc3C2C1 (configuration not stated)
0.977

# normalized growth lookup, item N[C@@H]1CONC1=O
1.02

# normalized growth lookup, item Cc1cc(=O)c2c(O)c3c(cc2o1)OCC(C)CC3 (configuration not stated)
0.806

***
# normalized growth lookup, item C#CCOS(=O)OC1CCCCC1Oc1ccc(C(C)(C)C)cc1 (configuration not stated)
1

# normalized growth lookup, item CC(C)Oc1ccc2c(=O)cc(-c3ccccc3)oc2c1
0.907

# normalized growth lookup, item Clc1ccc(Cl)cc1
0.99

# normalized growth lookup, item CCC/C=C/C=C/[C@@H]1C[C@@H](O)[C@@H](O)C(=O)[C@H]1C=O
0.988

# normalized growth lookup, item CCCN1C[C@H](CSC)C[C@@H]2c3cccc4[nH]cc(c34)C[C@H]21
0.985

# normalized growth lookup, item Cn1nnnc1SCC1=C(C(=O)O)N2C(=O)C(NC(=O)C(O)c3ccccc3)C2SC1 (configuration not stated)
1.01

# normalized growth lookup, item Cc1cc(=O)c2c(o1)-c1c(cc(O)c(O)c1C(=O)O)OC2
1.02
